Sourced from patent US8883765B2

# Study target: pp 28-luciferase expressing CMV (Towne)
# Measurement protocol: microbe, parasite or virus in culture
# Format: cell-based, human CMV
# Test context: Table 1; 50% virus inhibition; mean and SD, at least five experiments in triplicates; read-out: EC50
Property: pEC50
For clarity, pEC50 is expressed as the negative log10 of concentration in mol/L.

Qu. Print pp 28-luciferase expressing CMV (Towne) pEC50 for C[C@H]1[C@@H](CCC(=O)Nc2ccc(F)cc2)O[C@@H]2OC3(C)CC[C@H]4[C@H](C)CC[C@@H]1[C@@]24OO3 [Artefanilide (3), Artefanilide] .
Ans. 5.09

* * *

# System: Human Foreskin Fibroblasts (HFF)
Property: CC50 (µM)
Just the number in µM, nothing appended.

Qu. Respond only with CC50 recorded for C[C@H]1[C@@H](CCC(=O)Nc2ccc(F)cc2)O[C@@H]2OC3(C)CC[C@H]4[C@H](C)CC[C@@H]1[C@@]24OO3 [Artefanilide (3), Artefanilide]
Ans. 44.9
